Please respond with reported TGI for every item in the list.
# Tested on: DMS 273 small cell lung
# measurement protocol: NCI tumour cell line growth inhibition, 48 h

Considering CC1OC(n2ccc3ccc([N+](=O)[O-])cc32)C(O)C(O)C1O (centres undefined) , its TGI with DMS 273 small cell lung was recorded as > 100 µM

Considering CC[C@@]1(O)C(=O)OCc2c1cc1n(c2=O)Cc2cc3c(OC)cccc3nc2-1 , its TGI with DMS 273 small cell lung was recorded as 1.14 µM

// assay DMS 273 small cell lung, entry CC1=N/C(=C\c2ccc(N)cc2)C(=O)N1Nc1nnc(NN2C(=O)/C(=C/c3ccc(N)cc3)N=C2C)c2ccccc12 , TGI value = > 100 µM

Let me check: Nc1c2ccccc2nc2nccnc12 , system DMS 273 small cell lung, measured TGI is > 100 µM

Result for C=CCC1=C2CCCCC2CCC1=O (centres undefined) , tested on DMS 273 small cell lung, TGI: > 100 µM

I looked up Nc1ccc(N=Nc2ccc(-c3ccc(N=Nc4c(S(=O)(=O)O)cc5cc(S(=O)(=O)O)c(N=Nc6ccc([N+](=O)[O-])cc6)c(N)c5c4O)cc3)cc2)c2cc(S(=O)(=O)O)ccc12 and its TGI for DMS 273 small cell lung was > 100 µM

Record for COc1cc(/C=C(\C)c2ccc3c(c2)OCO3)cc(OC)c1OC under target or system DMS 273 small cell lung: TGI reported as 96.3 µM

COC(=O)CCC(=O)C(CC(=O)OC)C(=O)CCC(=O)NCCc1ccccc1 (centres undefined) tested on DMS 273 small cell lung gave TGI: > 100 µM

Item Cc1ccc(NC(=O)CC2SC(=Nc3cccc(Cl)c3C)NC2=O)cc1 (centres undefined) ; assay system DMS 273 small cell lung; TGI reported as > 100 µM
